# protocol_text: AUClast in BALB/c mouse at 10 mg/kg, po measured upto 24 hrs by LC/MS-MS analysis
# Assay type: ADME, organism-based
# Set-up: dose 10 mg/kg, time < 24 hr, route oral
# setup_conditions: in vivo
measurement_name: AUC(0-t) at 24 h (µM·h)

- compound: "Cc1ccc(-c2cc(C(F)(F)F)ccc2[C@H]2CCOc3cc(S(=O)(=O)Nc4ncccn4)ccc32)cn1"
  measurement_name: "AUC(0-t) at 24 h"
  result_units: "µM·h"
  readout_number: 63
- compound: "O=S(=O)(Nc1nccs1)c1ccc2c(c1)OCC[C@@H]2c1ccc(C(F)(F)F)cc1-n1ccnn1"
  measurement_name: "AUC(0-t) at 24 h"
  result_units: "µM·h"
  readout_number: 7.1
- compound: "O=S(=O)(Nc1nccs1)c1ccc2c(c1)OCC[C@@H]2c1ccc(C(F)(F)F)cc1-c1ccc(F)nc1"
  measurement_name: "AUC(0-t) at 24 h"
  result_units: "µM·h"
  readout_number: 19
- compound: "O=S(=O)(Nc1ncccn1)c1ccc2c(c1)OCC[C@@H]2c1ccc(C(F)(F)F)cc1-c1ccc(F)nc1"
  measurement_name: "AUC(0-t) at 24 h"
  result_units: "µM·h"
  readout_number: 171
- compound: "Cn1nccc1-c1cc(C(F)(F)F)ccc1[C@H]1CCc2cc(S(=O)(=O)Nc3ncccn3)ccc21"
  measurement_name: "AUC(0-t) at 24 h"
  result_units: "µM·h"
  readout_number: 84

(P) Cn1nccc1-c1cc(C(F)(F)F)ccc1[C@H]1CCOc2cc(S(=O)(=O)Nc3ncccn3)ccc21
(Q) O=S(=O)(Nc1ncccn1)c1ccc2c(c1)OCC[C@@H]2c1ccc(C(F)(F)F)cc1N1CCOCC1
(R) Cn1nccc1-c1cc(C(F)(F)F)ccc1[C@H]1CCOc2cc(S(=O)(=O)Nc3nccs3)ccc21
Incoming: Rank descending by AUC(0-t) at 24 h. Your answer should be the labels, listed in the requested order.
Outgoing: P, Q, R
(P: 107 µM·h, Q: 62 µM·h, R: 15 µM·h)

###

# protocol_text: Clearance in BALB/c mouse at 1 mg/kg, iv measured upto 24 hrs by LC/MS-MS analysis
# Type: ADME, organism-based
# setup_conditions: in vivo
measurement_name: clearance (mL/min/kg)

# annotated cases, reported clearance shown
- compound: "Cn1nccc1-c1cc(C(F)(F)F)ccc1[C@H]1CCOc2cc(S(=O)(=O)Nc3nccs3)ccc21"
  readout_number: 14
- compound: "Cn1nccc1-c1cc(C(F)(F)F)ccc1[C@H]1CCc2cc(S(=O)(=O)Nc3ncccn3)ccc21"
  readout_number: 3.3
- compound: "Cn1nccc1-c1cc(C(F)(F)F)ccc1[C@H]1CCOc2cc(S(=O)(=O)Nc3ncccn3)ccc21"
  readout_number: 2.7
- compound: "O=S(=O)(Nc1nccs1)c1ccc2c(c1)OCC[C@@H]2c1ccc(C(F)(F)F)cc1-n1ccnn1"
  readout_number: 37
- compound: "O=S(=O)(Nc1ncccn1)c1ccc2c(c1)OCC[C@@H]2c1ccc(C(F)(F)F)cc1-c1ccc(F)nc1"
  readout_number: 2.6

(A) O=S(=O)(Nc1ncccn1)c1ccc2c(c1)OCC[C@@H]2c1ccc(C(F)(F)F)cc1N1CCOCC1
(B) O=S(=O)(Nc1nccs1)c1ccc2c(c1)OCC[C@@H]2c1ccc(C(F)(F)F)cc1-c1ccc(F)nc1
Incoming: In terms of reported clearance, does A or B have the smaller number? Your choice should be expressed through its label.
Outgoing: A

###

# protocol_text: AUClast in male cynomolgus monkey at 150 mg/kg, po
# Format: ADME, organism-based, Macaca fascicularis
# Design: dose 150 mg/kg, route oral, time 0 - last
# setup_conditions: in vivo
measurement_name: AUC(0-t) (µM·h)
Reply numerically in µM·h, unit not repeated.

Incoming: Would you kindly share the measured AUC(0-t) for `Cn1nccc1-c1cc(C(F)(F)F)ccc1[C@H]1CCc2cc(S(=O)(=O)Nc3ncccn3)ccc21` ?
Outgoing: 684

###

# protocol_text: Oral bioavailability in Sprague-Dawley rat at 10 mg/kg measured upto 24 hrs by LC/MS-MS analysis
# Assay type: ADME, organism-based
# setup_conditions: in vivo
measurement_name: bioavailability (%)

- compound: "Cn1nccc1-c1cc(C(F)(F)F)ccc1[C@H]1CCOc2cc(S(=O)(=O)Nc3ncccn3)ccc21"
  bioavailability / %: 100
- compound: "Cn1nccc1-c1cc(C(F)(F)F)ccc1[C@H]1CCc2cc(S(=O)(=O)Nc3ncccn3)ccc21"
  bioavailability / %: 58

(A) O=S(=O)(Nc1ncccn1)c1ccc2c(c1)OCC[C@@H]2c1ccc(C(F)(F)F)cc1-c1ccc(F)nc1
(B) O=S(=O)(Nc1ncccn1)c1ccc2c(c1)OCC[C@@H]2c1ccc(C(F)(F)F)cc1N1CCOCC1
Incoming: Could you kindly indicate whether A or B has the higher bioavailability value? Your choice should be expressed through its label.
Outgoing: A
(A: 74%, B: 31%)

###

# protocol_text: Cmax in Sprague-Dawley rat at 10 mg/kg, po measured upto 24 hrs by LC/MS-MS analysis
# Assay type: ADME, organism-based
# Set-up: dose 10 mg/kg, route oral
# setup_conditions: in vivo
measurement_name: Cmax (µM)

# annotated cases, reported Cmax shown
- compound: "Cc1ccc(-c2cc(C(F)(F)F)ccc2[C@H]2CCOc3cc(S(=O)(=O)Nc4ncccn4)ccc32)cn1"
  measurement_name: "Cmax"
  readout_number: 19
- compound: "O=S(=O)(Nc1ncccn1)c1ccc2c(c1)OCC[C@@H]2c1ccc(C(F)(F)F)cc1N1CCOCC1"
  measurement_name: "Cmax"
  readout_number: 2.1
- compound: "Cn1nccc1-c1cc(C(F)(F)F)ccc1[C@H]1CCc2cc(S(=O)(=O)Nc3ncccn3)ccc21"
  measurement_name: "Cmax"
  readout_number: 10.9

(I) Cn1nccc1-c1cc(C(F)(F)F)ccc1[C@H]1CCOc2cc(S(=O)(=O)Nc3ncccn3)ccc21
(II) O=S(=O)(Nc1ncccn1)c1ccc2c(c1)OCC[C@@H]2c1ccc(C(F)(F)F)cc1-c1ccc(F)nc1
Incoming: In terms of reported Cmax, does I or II have the smaller number? Your choice should be expressed through its label.
Outgoing: II

###

# protocol_text: Cmax in Beagle dog at 1 mg/kg, iv administered as infusion for 15 mins by LC/MS-MS analysis
# Format: ADME, organism-based, Canis lupus familiaris
# Parameters: dose 1 mg/kg, route intravenous
# setup_conditions: in vivo
measurement_name: Cmax (µM)

- compound: "Cc1ccc(-c2cc(C(F)(F)F)ccc2[C@H]2CCOc3cc(S(=O)(=O)Nc4ncccn4)ccc32)cn1"
  measurement_name: "Cmax"
  readout_number: 6.5
- compound: "O=S(=O)(Nc1ncccn1)c1ccc2c(c1)OCC[C@@H]2c1ccc(C(F)(F)F)cc1N1CCOCC1"
  measurement_name: "Cmax"
  readout_number: 4.9
- compound: "Cn1nccc1-c1cc(C(F)(F)F)ccc1[C@H]1CCOc2cc(S(=O)(=O)Nc3ncccn3)ccc21"
  measurement_name: "Cmax"
  readout_number: 6.9
- compound: "O=S(=O)(Nc1ncccn1)c1ccc2c(c1)OCC[C@@H]2c1ccc(C(F)(F)F)cc1-c1ccc(F)nc1"
  measurement_name: "Cmax"
  readout_number: 5.7

###

# key: entry, value: brain concentration at 40 min
# protocol_text: Drug concentration in brain of formalin-induced C57BL/6 mouse model of nociceptive pain at 30 mg/kg, po administered 30 mins before formalin stimulation and measured after 40 mins

- compound: "O=S(=O)(Nc1ncccn1)c1ccc2c(c1)OCC[C@@H]2c1ccc(C(F)(F)F)cc1N1CCOCC1"
  result: "< 1000 nM"

Incoming: Would you kindly share the measured brain concentration at 40 min for `Cc1ccc(-c2cc(C(F)(F)F)ccc2[C@H]2CCOc3cc(S(=O)(=O)Nc4ncccn4)ccc32)cn1` ?
Outgoing: < 1000 nM

###

# protocol_text: Clearance in Beagle dog at 1 mg/kg, iv administered as infusion for 15 mins by LC/MS-MS analysis
# Format: ADME, organism-based, Canis lupus familiaris
# setup_conditions: in vivo
measurement_name: clearance (mL/min/kg)

- compound: "Cn1nccc1-c1cc(C(F)(F)F)ccc1[C@H]1CCOc2cc(S(=O)(=O)Nc3ncccn3)ccc21"
  clearance, mL/min/kg: 0.5

(a) O=S(=O)(Nc1ncccn1)c1ccc2c(c1)OCC[C@@H]2c1ccc(C(F)(F)F)cc1N1CCOCC1
(b) O=S(=O)(Nc1ncccn1)c1ccc2c(c1)OCC[C@@H]2c1ccc(C(F)(F)F)cc1-c1ccc(F)nc1
Incoming: Could you kindly indicate whether a or b has the higher clearance value? Your choice should be expressed through its label.
Outgoing: a
(a: 0.5 mL/min/kg, b: 0.3 mL/min/kg)

###

# protocol_text: Lipophilicity, log D of the compound
# Format: physicochemical
# setup_conditions: octanol/water
measurement_name: logD

- compound: "Cn1nccc1-c1cc(C(F)(F)F)ccc1[C@@H]1CCOc2cc(S(=O)(=O)Nc3nccs3)ccc21"
  logD: 2.2
- compound: "Cn1nccc1-c1cc(C(F)(F)F)ccc1[C@H]1CCOc2cc(S(=O)(=O)Nc3ccncn3)ccc21"
  logD: 1.8
- compound: "Cc1ccc(-c2cc(C(F)(F)F)ccc2[C@H]2CCOc3cc(S(=O)(=O)Nc4ncccn4)ccc32)cn1"
  logD: 2.3
- compound: "O=S(=O)(Nc1nccs1)c1ccc2c(c1)OCC[C@@H]2c1ccc(C(F)(F)F)cc1-c1ccc(F)cc1"
  logD: 4.5

(P) Cc1nc(-c2cc(C(F)(F)F)ccc2[C@H]2CCOc3cc(S(=O)(=O)Nc4ncc(F)cn4)ccc32)co1
(Q) O=S(=O)(Nc1nccs1)c1ccc2c(c1)OCC[C@@H]2c1ccc(C(F)(F)F)cc1N1CCNCC1
(R) O=S(=O)(Nc1nccs1)c1ccc2c(c1)OCC[C@H]2c1ccc(C(F)(F)F)cc1-c1ccc(F)cc1
Incoming: Rank descending by logD. Your answer should be the labels, listed in the requested order.
Outgoing: R, P, Q
